# experiment: protein stability index of a GFP-peptide fusion (GPS, HEK-293T) (PSI 1-6); higher = more stable;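 also: 24-mer peptide tiles fused after GFP, lentivirally expressed, FACS-sorted into six equal bins by GFP/DsRed ratio, decoded by Illumina sequencing, PSI is the read-weighted mean bin number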
# statedConditions: treatment: MLN4924 1 uM, 8 h; c terminus: native

- sequenceData: "YWEAWRHHCQGKDLTEWVDGCDF [SPACA3]"
  protein stability index: 3.04
- sequenceData: "HEVLLCSDLVKAYQRCVSAAHKG [CHCHD6]"
  protein stability index: 2.27
- sequenceData: "TQSNRTSRLIGKKMNRSVSLTIY [WEE1]"
  protein stability index: 2.27
- sequenceData: "DIALNKHRSRRKWCFWNSSPAVA [RHOBTB1]"
  protein stability index: 2.87
- sequenceData: "PACHSFNRAIHKKAKGTEAEEEY [FBXO34]"
  protein stability index: 5.41

meta.source: the supplement of paper PMC10567573
